A collection of compounds and their measured pEC50
- Test target: Cannabinoid receptor 1 (Homo sapiens, UniProt P21554)
- Sequence (P21554 whole entry): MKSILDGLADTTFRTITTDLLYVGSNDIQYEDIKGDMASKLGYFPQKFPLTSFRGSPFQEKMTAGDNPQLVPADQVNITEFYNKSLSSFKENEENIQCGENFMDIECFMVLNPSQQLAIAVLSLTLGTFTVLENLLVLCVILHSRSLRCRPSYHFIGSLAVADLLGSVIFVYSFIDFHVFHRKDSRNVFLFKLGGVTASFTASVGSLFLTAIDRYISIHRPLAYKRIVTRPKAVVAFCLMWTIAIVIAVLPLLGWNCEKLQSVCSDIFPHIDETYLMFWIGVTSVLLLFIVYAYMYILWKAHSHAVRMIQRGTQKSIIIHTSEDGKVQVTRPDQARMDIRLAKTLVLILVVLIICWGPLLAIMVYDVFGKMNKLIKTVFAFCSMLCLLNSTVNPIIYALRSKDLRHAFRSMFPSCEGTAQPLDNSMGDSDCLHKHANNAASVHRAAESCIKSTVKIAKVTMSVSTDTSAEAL
- Protocol: Agonist activity at human CB1 receptor stably transfected in AtT20 cells incubated for 60 mins by FLIPR membrane potential assay
- Format: functional, cell-based
- Stated conditions: read-out: EC50
pEC50: −log10 of the molar value.
Property: pEC50

| Smiles input | Value measured |
| --- | --- |
| CC[C@H](C)[C@H](NC(=O)c1cn(CCCCCF)c2ccccc12)C(=O)OC | 7.56 |
| COC(=O)[C@H](NC(=O)c1cn(CCCCCF)c2ccccc12)C(C)C | 6.98 |
| COC(=O)[C@@H]1CCCN1C(=O)c1cn(CCCCCF)c2ccccc12 | 7.68 |
| COC(=O)[C@H](CCSC)NC(=O)c1cn(CCCCCF)c2ccccc12 | 6.45 |
| COC(=O)[C@H](C)NC(=O)c1cn(CCCCCF)c2ccccc12 | 7.10 |
| COC(=O)[C@@H](Cc1ccccc1)NC(=O)c1cn(CCCCCF)c2ccccc12 | 6.36 |
| COC(=O)[C@H](Cc1ccccc1)NC(=O)c1cn(CCCCCF)c2ccccc12 | 8.33 |
| COC(=O)[C@H](CO)NC(=O)c1cn(CCCCCF)c2ccccc12 | 6.70 |
| COC(=O)[C@@H](CCC(N)=O)NC(=O)c1cn(CCCCCF)c2ccccc12 | 5.44 |
| CC[C@@H](C)[C@@H](NC(=O)c1cn(CCCCCF)c2ccccc12)C(=O)OC | 7.47 |
| COC(=O)[C@H](NC(=O)c1cn(CCCCCF)c2ccccc12)[C@H](C)O | 5.64 |
| COC(=O)[C@@H](CCSC)NC(=O)c1cn(CCCCCF)c2ccccc12 | 6.69 |
| COC(=O)[C@H](NC(=O)c1cn(CCCCCF)c2ccccc12)C(C)(C)C | 7.79 |
| COC(=O)[C@@H](NC(=O)c1cn(CCCCCF)c2ccccc12)[C@@H](C)O | 7.31 |
| COC(=O)[C@H](Cc1ccc(O)cc1)NC(=O)c1cn(CCCCCF)c2ccccc12 | 6.74 |
| COC(=O)[C@H](CC(C)C)NC(=O)c1cn(CCCCCF)c2ccccc12 | 7.59 |
| COC(=O)[C@@H](CC(C)C)NC(=O)c1cn(CCCCCF)c2ccccc12 | 7.62 |

---

Each record here notes measured Emax.
- Test target: Cannabinoid receptor 1 (Homo sapiens, UniProt P21554)
- Protocol: Agonist activity at human CB1 receptor stably transfected in AtT20 cells assessed as maximal efficacy at 10 uM incubated for 60 mins by FLIPR membrane potential assay relative to control
- Assay type: functional, cell-based
- Stated conditions: filed as agonist

| Smiles input | Emax (%) |
| --- | --- |
| COC(=O)[C@@H](Cc1ccc(O)cc1)NC(=O)c1cn(CCCCCF)c2ccccc12 | 57 |
| COC(=O)[C@H](CCC(N)=O)NC(=O)c1cn(CCCCCF)c2ccccc12 | 94 |
| COC(=O)[C@@H](CO)NC(=O)c1cn(CCCCCF)c2ccccc12 | 66 |
| COC(=O)[C@@H](CCCCN)NC(=O)c1cn(CCCCCF)c2ccccc12 | 58 |
| COC(=O)CNC(=O)c1cn(CCCCCF)c2ccccc12 | 40 |

---

Emax values by entry
- Test target: Cannabinoid receptor 2 (Homo sapiens, UniProt P34972)
- Sequence (P34972 whole entry): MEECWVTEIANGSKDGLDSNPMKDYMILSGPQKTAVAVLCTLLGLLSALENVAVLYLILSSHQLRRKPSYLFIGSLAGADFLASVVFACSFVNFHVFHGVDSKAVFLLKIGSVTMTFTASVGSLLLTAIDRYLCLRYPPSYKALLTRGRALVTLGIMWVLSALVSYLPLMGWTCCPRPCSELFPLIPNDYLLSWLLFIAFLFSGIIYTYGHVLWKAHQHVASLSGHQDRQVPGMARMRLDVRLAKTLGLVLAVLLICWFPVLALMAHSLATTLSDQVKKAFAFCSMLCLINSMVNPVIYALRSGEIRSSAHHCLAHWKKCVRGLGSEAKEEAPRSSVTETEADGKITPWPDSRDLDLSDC
- Protocol: Agonist activity at human CB2 receptor stably transfected in AtT20 cells assessed as maximal efficacy at 10 uM incubated for 60 mins by FLIPR membrane potential assay relative to control
- Type: functional, cell-based

| Smiles input | Unit text | Emax |
| --- | --- | --- |
| COC(=O)[C@H](Cc1c[nH]c2ccccc12)NC(=O)c1cn(CCCCCF)c2ccccc12 | % | 37 |
| COC(=O)[C@@H](Cc1c[nH]c2ccccc12)NC(=O)c1cn(CCCCCF)c2ccccc12 | % | 17 |
| COC(=O)CNC(=O)c1cn(CCCCCF)c2ccccc12 | % | 12 |
| COC(=O)[C@H](CCCCN)NC(=O)c1cn(CCCCCF)c2ccccc12 | % | 4 |
| COC(=O)[C@H]1CCCN1C(=O)c1cn(CCCCCF)c2ccccc12 | % | 7 |

---

- Test target: UniProt:P21554
- Protocol: Agonist activity at human CB1 receptor stably transfected in AtT20 cells assessed as maximal efficacy at 30 uM incubated for 60 mins by FLIPR membrane potential assay relative to control
- Assay type: functional, cell-based
- Stated conditions: filed as agonist
Property: Emax (%)

| Smiles input | Test target | Property | Value measured |
| --- | --- | --- | --- |
| CC[C@H](C)[C@H](NC(=O)c1cn(CCCCCF)c2ccccc12)C(=O)OC | UniProt:P21554 | Emax | 145 |
| COC(=O)[C@H](Cc1ccc(O)cc1)NC(=O)c1cn(CCCCCF)c2ccccc12 | UniProt:P21554 | Emax | 135 |
| COC(=O)[C@H](CCSC)NC(=O)c1cn(CCCCCF)c2ccccc12 | UniProt:P21554 | Emax | 151 |
| COC(=O)[C@H](NC(=O)c1cn(CCCCCF)c2ccccc12)C(C)(C)C | UniProt:P21554 | Emax | 129 |
| COC(=O)[C@H](CO)NC(=O)c1cn(CCCCCF)c2ccccc12 | UniProt:P21554 | Emax | 123 |
| COC(=O)[C@@H](CC(C)C)NC(=O)c1cn(CCCCCF)c2ccccc12 | UniProt:P21554 | Emax | 150 |
| COC(=O)[C@@H](Cc1ccccc1)NC(=O)c1cn(CCCCCF)c2ccccc12 | UniProt:P21554 | Emax | 107 |
| COC(=O)[C@H](NC(=O)c1cn(CCCCCF)c2ccccc12)[C@H](C)O | UniProt:P21554 | Emax | 105 |

---

- Test target: Cannabinoid receptor 1 (Homo sapiens)
- Protocol: Agonist activity at human CB1 receptor stably transfected in AtT20 cells assessed as maximal efficacy at 10 uM incubated for 60 mins by FLIPR membrane potential assay relative to control
- Assay type: functional, cell-based
// reported Emax per item

| Smiles input | Emax (%) |
| --- | --- |
| COC(=O)[C@H]1CCCN1C(=O)c1cn(CCCCCF)c2ccccc12 | 33 |
| COC(=O)[C@@H](Cc1c[nH]c2ccccc12)NC(=O)c1cn(CCCCCF)c2ccccc12 | 9 |
| COC(=O)[C@H](Cc1c[nH]c2ccccc12)NC(=O)c1cn(CCCCCF)c2ccccc12 | 34 |
| COC(=O)[C@H](CCCCN)NC(=O)c1cn(CCCCCF)c2ccccc12 | 12 |

---

- Test target: Cannabinoid receptor 1 (Homo sapiens, UniProt P21554)
- Protocol: Agonist activity at HA-tagged human CB1 receptor stably transfected in AtT20 cells incubated for 60 mins by FLIPR membrane potential assay
- Format: functional, cell-based

| Smiles input | EC50 |
| --- | --- |
| COC(=O)[C@@H](NC(=O)c1cn(CCCCCF)c2ccccc12)C(C)(C)C | 0.45 nM |
| COC(=O)[C@@H](NC(=O)c1cn(CCCCCF)c2ccccc12)C(C)C | 2.4 nM |

---

- Test target: UniProt P34972
- Protocol: Agonist activity at human CB2 receptor stably transfected in AtT20 cells incubated for 60 mins by FLIPR membrane potential assay
- Format: functional, cell-based
pEC50: −log10 of the molar value.
Entries and their pEC50 values follow.

| Smiles input | pEC50 |
| --- | --- |
| COC(=O)[C@H](CO)NC(=O)c1cn(CCCCCF)c2ccccc12 | 6.20 |
| COC(=O)[C@H](CC(C)C)NC(=O)c1cn(CCCCCF)c2ccccc12 | 8.15 |
| COC(=O)[C@@H](CCCCN)NC(=O)c1cn(CCCCCF)c2ccccc12 | 5.90 |
| COC(=O)[C@@H](Cc1ccccc1)NC(=O)c1cn(CCCCCF)c2ccccc12 | 6.23 |
| COC(=O)[C@H](NC(=O)c1cn(CCCCCF)c2ccccc12)C(C)(C)C | 7.25 |
| CC[C@H](C)[C@H](NC(=O)c1cn(CCCCCF)c2ccccc12)C(=O)OC | 7.72 |
| COC(=O)[C@H](Cc1ccccc1)NC(=O)c1cn(CCCCCF)c2ccccc12 | 8.13 |
| CC[C@@H](C)[C@@H](NC(=O)c1cn(CCCCCF)c2ccccc12)C(=O)OC | 7.57 |
| COC(=O)[C@H](NC(=O)c1cn(CCCCCF)c2ccccc12)C(C)C | 7.79 |
| COC(=O)[C@H](CCSC)NC(=O)c1cn(CCCCCF)c2ccccc12 | 7.22 |
| COC(=O)[C@@H](C)NC(=O)c1cn(CCCCCF)c2ccccc12 | 6.32 |
| COC(=O)[C@H](NC(=O)c1cn(CCCCCF)c2ccccc12)[C@H](C)O | 7.03 |
| COC(=O)[C@@H](CC(C)C)NC(=O)c1cn(CCCCCF)c2ccccc12 | 7.27 |
| COC(=O)[C@H](CCC(N)=O)NC(=O)c1cn(CCCCCF)c2ccccc12 | 6.70 |
| COC(=O)[C@@H](CCC(N)=O)NC(=O)c1cn(CCCCCF)c2ccccc12 | 6.35 |
| COC(=O)[C@H](Cc1ccc(O)cc1)NC(=O)c1cn(CCCCCF)c2ccccc12 | 7.06 |
| COC(=O)[C@H](C)NC(=O)c1cn(CCCCCF)c2ccccc12 | 7.23 |
| COC(=O)[C@@H]1CCCN1C(=O)c1cn(CCCCCF)c2ccccc12 | 7.87 |
| COC(=O)[C@@H](CCSC)NC(=O)c1cn(CCCCCF)c2ccccc12 | 7.02 |
| COC(=O)[C@@H](NC(=O)c1cn(CCCCCF)c2ccccc12)[C@@H](C)O | 6.83 |
